System: Wolbachia pipientis
Experiment: Anti-Wolbachia Cell-Based Screen
Type: functional
Design: scale not given: in the data most compounds retested in dose-response had high values
Conditions: 5 µM
The whole screen tested about 48,000 compounds, of which about 13,000 (27%) showed an effect of 50% or more. This is one part of the list.
Attribute: Percent Effect
Report as a plain number; the unit % is understood.

Below: 5 compounds and their reported Percent Effect.
In [3]: df
Out[3]:
                                   compound  quantity_unit  recorded_value
0  c1cncc(-c2nnc(C3(c4ccc5c(c4)OCO5)CCOCC3)o2)c1              %          0.6275
1      CN1CCN(Cc2cn3c(n2)CNCC3)CC1.Cl.Cl.Cl              %          -6.492
2    O=C(O)COc1ccc(Cl)cc1CN1CCC2(CCOCC2)CC1              %           5.352
3  O=C(NCCCn1cccn1)C1CCC(=O)N(CC2CCCCC2)C1 (stereo unspecified)              %          -8.272
4  COc1cccc2c1OCC(C(=O)NCCCn1nc(C)c(Cl)c1C)C2 (stereo unspecified)              %          -39.79

# evaluate next
Challenge: Fill blank: measured Percent Effect of the compound CC(=O)c1ccc(N2CCCC(CO)(Cc3ccccc3C)C2)nc1 (stereo unspecified) is ____.
Response given: -1.793

---

Tested on: Wolbachia pipientis
Assay: Anti-Wolbachia Cell-Based Screen
Type: functional
Parameters: scale not given: in the data most compounds retested in dose-response had high values
Settings: 5 µM
The campaign covered roughly 48,000 compounds. About 13,000 (27%) showed an effect of 50% or more. The list shows a part of the results.
Attribute: Percent Effect
Report as a plain number; the unit % is understood.

Below: 5 compounds and their reported Percent Effect.
                                   compound     result_type  quantity_unit  recorded_value
0     CC(C)c1nc2c(n1C)CCN(CC(=O)Nc1nccs1)C2  Percent Effect              %          -1.818
1  Cn1cccc1CN1CCC2(CC1)CN(c1ccccc1)C(=O)CO2.O=C(O)C(F)(F)F  Percent Effect              %           80.65
2    CC(C)c1nc2c(n1C)CCN(CC(=O)Nc1cccnc1)C2  Percent Effect              %           119.2
3  Cc1ccc(NC(=O)N2CCOC(C)(c3cnn(C)c3)C2)c(C)c1 (stereo unspecified)  Percent Effect              %           16.86
4   CC(C)c1nc2c(n1C)CCN(CC(=O)NCc1ccccn1)C2  Percent Effect              %           -5.66

# evaluate next
Challenge: Fill blank: measured Percent Effect of the compound Cc1cccc(C(=O)N2CCSCC2)c1NC(=O)c1ccsc1 is ____.
Response given: 1.507

---

Test system: Wolbachia pipientis
Assay: Anti-Wolbachia Cell-Based Screen
Assay type: functional
Design: scale not given: in the data most compounds retested in dose-response had high values
Conditions: 5 µM
Among all 48,000 compounds or so, about 13,000 (27%) showed an effect of 50% or more. The list shows a part of the results.
Attribute: Percent Effect
Report as a plain number; the unit % is understood.

Below: 3 compounds and their reported Percent Effect.
                                   compound     result_type  quantity_unit  recorded_value
0  O=C(NCCN1CCOCC1)c1ccc(-c2ccccc2)[nH]c1=O  Percent Effect              %          -12.34
1  Cc1cc(F)ccc1N1CCC(N2C[C@@H](C)[C@@](C)(O)C2)CC1  Percent Effect              %          -24.61
2  O=C(NCCCn1cncn1)c1ccc(-c2ccccc2)[nH]c1=O  Percent Effect              %          -1.732

Challenge: Fill blank: measured Percent Effect of the compound Cc1cccc(-c2ccc(C(=O)NCC3CCCO3)c(=O)[nH]2)c1 (stereo unspecified) is ____.
Response given: 118.6

Challenge: Here is the next compound: O=C(NCC1CCOC1)c1ccc(-c2ccccc2)[nH]c1=O (stereo unspecified)
Response given: 96.09

Challenge: Here is the next compound: Cc1cccc(-c2ccc(C(=O)NCCN3CCOCC3)c(=O)[nH]2)c1
Response given: 3.561

Challenge: Here is the next compound: CS(=O)(=O)N1CCC(Oc2ccc(C(=O)NCCC(N)=O)cc2Cl)CC1
Response given: -24.14

Challenge: Here is the next compound: Cc1ccc(C(=O)NCC2CCCCO2)c(=O)[nH]1 (stereo unspecified)
Response given: 8.158

Challenge: Here is the next compound: Cc1cccc(-c2ccc(C(=O)NCC3CCOC3)c(=O)[nH]2)c1 (stereo unspecified)
Response given: 2.342

Challenge: Here is the next compound: Cc1ccc(C(=O)NCC2COCCO2)c(=O)[nH]1 (stereo unspecified)
Response given: 4.795

Challenge: Here is the next compound: CCOC(=O)C1CN(CC2CC2)Cc2ncn(CC)c21.O=C(O)C(F)(F)F (stereo unspecified)
Response given: 1.772

---

System: Wolbachia pipientis
Assay: Anti-Wolbachia Cell-Based Screen
Assay type: functional
Set-up: scale not given: in the data most compounds retested in dose-response had high values
Settings: 5 µM
The campaign covered roughly 48,000 compounds. About 13,000 (27%) showed an effect of 50% or more. The list shows a part of the results.
Attribute: Percent Effect
Report as a plain number; the unit % is understood.

Challenge: # query: Percent Effect | item Cc1ccc(S(=O)(=O)N2CCC(c3n[nH]cc3C(=O)N(C)C)CC2)cc1 | system: Wolbachia pipientis
Response given: 124.5

Challenge: Here is the next compound: CNC(=O)[C@@]12CCO[C@@H]1CCN(S(=O)(=O)c1ccc(C)cc1)C2
Response given: 8.759

Challenge: Here is the next compound: COc1cccc(OC2CN(C(=O)c3cc(CC(C)C)nn3C)C2)c1
Response given: -45.28

Challenge: Here is the next compound: CC(=O)c1ccc(S(=O)(=O)N2CCC(c3n[nH]c(C)n3)CC2)cc1
Response given: 9.052

Challenge: Here is the next compound: CN(C)C(=O)c1cccnc1N1CCOC(c2ccc(Cl)cc2)C1 (stereo unspecified)
Response given: 7.498

Challenge: Here is the next compound: CN(C)C(=O)c1c[nH]nc1C1CCN(S(=O)(=O)c2cccc(Cl)c2)CC1
Response given: 103

Challenge: Here is the next compound: O=C(O)c1cncc(Cc2cccc(F)c2)c1
Response given: 136.9

---

Attribute: Percent Effect
Tested on: Wolbachia pipientis
Test: Anti-Wolbachia Cell-Based Screen
Assay type: functional
Parameters: scale not given: in the data most compounds retested in dose-response had high values
Details: 5 µM
Among all 48,000 compounds or so, about 13,000 (27%) showed an effect of 50% or more. This is one part of the list.
Report as a plain number; the unit % is understood.

In [3]: df
Out[3]:
                                   molecule     target_or_system     result_type  quantity_unit  recorded_value
0  CC1CN(C(=O)NCCCn2cncn2)CCO1 (configuration not stated)  Wolbachia pipientis  Percent Effect              %          -6.452
1  CCc1nc(C2CCCN2C(=O)CCCn2cncn2)no1 (configuration not stated)  Wolbachia pipientis  Percent Effect              %           114.2
2  COc1cccc(N2CC3(CCN(Cc4nccn4C)C3)CC2=O)c1.O=C(O)C(F)(F)F (configuration not stated)  Wolbachia pipientis  Percent Effect              %           13.06
3  Cn1ccnc1CN1CCC(F)(F)C2(CCN(c3cnccn3)C2)C1.O=C(O)C(F)(F)F (configuration not stated)  Wolbachia pipientis  Percent Effect              %           108.4
4  Cc1csc(C2CCCCN2C(=O)CCCn2cncn2)n1 (configuration not stated)  Wolbachia pipientis  Percent Effect              %          -9.865
5          CN1CCCN(C(=O)NCCNc2ncccc2C#N)CC1  Wolbachia pipientis  Percent Effect              %          -11.99
6   O=C(NCCNc1cnccn1)N1CC=C(c2ccc(O)cc2)CC1  Wolbachia pipientis  Percent Effect              %          -14.06
7  CC1CN(C(=O)NCCNc2cnccn2)CCO1 (configuration not stated)  Wolbachia pipientis  Percent Effect              %           93.32
8             CN1CCCN(C(=O)NCCNc2cnccn2)CC1  Wolbachia pipientis  Percent Effect              %           104.7
9  CCc1nc(C2CCCN2C(=O)CCCOc2cccc(F)c2)no1 (configuration not stated)  Wolbachia pipientis  Percent Effect              %          -10.09

Challenge: Fill blank: measured Percent Effect of the molecule CC(C)c1nc(C2CCCN2C(=O)CCn2cncn2)no1 (configuration not stated) is ____.
Response given: 104.8

Challenge: Here is the next molecule: CC(C)c1nc(C2CCCN2C(=O)c2cnc[nH]2)no1 (configuration not stated)
Response given: -3.664
